- Procedure Summary: Pharmacokinetics and tissue distribution after single intravenous administration
- Format: in vivo, mouse
- Measurement Parameters: ICR, mouse, iv; mice, single i.v. 10 mg/kg; Liver; read-out: Tissues/plasma ratio
Measurement Kind: Kp

- Compound: "O=C(CCc1ccc(C(F)(F)F)cc1)O[C@@H]1C(=O)NCCc2c([nH]c3ccccc23)[C@H]1c1ccc(C(F)(F)F)cc1 [(+)3C-20]"
  Assay Result: 3.5

* * *

- Procedure Summary: Pharmacokinetics and tissue distribution after single intravenous administration
- Assay type: in vivo, mouse
- Measurement Parameters: ICR, mouse, heart, iv; mice, single i.v. 10 mg/kg; 2 h; read-out: Concentration of (+)3C-20, Heart
- Description: Pharmacokinetic studies were performed as previously described.^[ [63] ^] Briefly, ICR mice were fasted without water for 16 h before drug administration and allowed access to food and water freely after administration. […]
Measurement Kind: concentration at 2 h (ng/g)

- Compound: "O=C(CCc1ccc(C(F)(F)F)cc1)O[C@@H]1C(=O)NCCc2c([nH]c3ccccc23)[C@H]1c1ccc(C(F)(F)F)cc1 [(+)3C-20]"
  Measurement Kind: "concentration at 2 h"
  Units Of Measure: "ng/g"
  Assay Result: 1270

* * *

- Procedure Summary: Pharmacokinetics and tissue distribution after single intravenous administration
- Type: in vivo, mouse
- Measurement Parameters: ICR, mouse, iv; mice, i.v. 10 mg kg^−1, serum and plasma; read-out: average half-life (converted)
Measurement Kind: half-life (h)

- Compound: "O=C(CCc1ccc(C(F)(F)F)cc1)O[C@@H]1C(=O)NCCc2c([nH]c3ccccc23)[C@H]1c1ccc(C(F)(F)F)cc1 [(+)3C-20]"
  Measurement Kind: "half-life"
  Units Of Measure: "h"
  Assay Result: 5.3

* * *

- Procedure Summary: Pharmacokinetics and tissue distribution after single intravenous administration
- Type: in vivo, mouse
- Measurement Parameters: ICR, mouse, iv; mice, single i.v. 10 mg/kg; Kidney

- Compound: "O=C(CCc1ccc(C(F)(F)F)cc1)O[C@@H]1C(=O)NCCc2c([nH]c3ccccc23)[C@H]1c1ccc(C(F)(F)F)cc1 [(+)3C-20]"
  Cmax, ng/mL: 1450

* * *

- Procedure Summary: Pharmacokinetics and tissue distribution after single intravenous administration
- Assay type: in vivo, mouse
- Measurement Parameters: ICR, mouse, brain, iv; mice, single i.v. 10 mg/kg; 2 h; read-out: Concentration of (+)3C-20, Brain
Measurement Kind: concentration at 2 h (ng/g)

- Molecule: "O=C(CCc1ccc(C(F)(F)F)cc1)O[C@@H]1C(=O)NCCc2c([nH]c3ccccc23)[C@H]1c1ccc(C(F)(F)F)cc1 [(+)3C-20]"
  Measurement Kind: "concentration at 2 h"
  Units Of Measure: "ng/g"
  Assay Result: 317

* * *

- Procedure Summary: Pharmacokinetics and tissue distribution after single intravenous administration
- Assay type: in vivo, mouse
- Measurement Parameters: ICR, mouse, iv; mice, single i.v. 10 mg/kg; Brain
Measurement Kind: k el (s⁻¹)

- Compound: "O=C(CCc1ccc(C(F)(F)F)cc1)O[C@@H]1C(=O)NCCc2c([nH]c3ccccc23)[C@H]1c1ccc(C(F)(F)F)cc1 [(+)3C-20]"
  Assay Result: "3.44e-05"

* * *

- Procedure Summary: Pharmacokinetics and tissue distribution after single intravenous administration
- Format: in vivo, mouse
- Measurement Parameters: ICR, mouse, iv; mice, single i.v. 10 mg/kg; Spleen

- Compound: "O=C(CCc1ccc(C(F)(F)F)cc1)O[C@@H]1C(=O)NCCc2c([nH]c3ccccc23)[C@H]1c1ccc(C(F)(F)F)cc1 [(+)3C-20]"
  Units Of Measure: "ng·h/mL"
  AUC(0-t): 9560

* * *

- Procedure Summary: Pharmacokinetics and tissue distribution after single intravenous administration
- Format: in vivo, mouse
- Measurement Parameters: ICR, mouse, iv; mice, single i.v. 10 mg/kg; Plasma
Measurement Kind: Cmax (ng/mL)

- Molecule: "O=C(CCc1ccc(C(F)(F)F)cc1)O[C@@H]1C(=O)NCCc2c([nH]c3ccccc23)[C@H]1c1ccc(C(F)(F)F)cc1 [(+)3C-20]"
  Measurement Kind: "Cmax"
  Assay Result: 4010

* * *

- Procedure Summary: Pharmacokinetics and tissue distribution after single intravenous administration
- Format: in vivo, mouse
- Measurement Parameters: ICR, mouse, iv; mice, single i.v. 10 mg/kg; Heart; read-out: t1/2 (converted)

- Molecule: "O=C(CCc1ccc(C(F)(F)F)cc1)O[C@@H]1C(=O)NCCc2c([nH]c3ccccc23)[C@H]1c1ccc(C(F)(F)F)cc1 [(+)3C-20]"
  half-life (h): 1.08

* * *

- Procedure Summary: Pharmacokinetics and tissue distribution after single intravenous administration
- Assay type: in vivo, mouse
- Measurement Parameters: ICR, mouse, iv; mice, single i.v. 10 mg/kg; Spleen
- Method: Pharmacokinetic studies were performed as previously described.^[ [63] ^] Briefly, ICR mice were fasted without water for 16 h before drug administration and allowed access to food and water freely after administration. […]
Measurement Kind: C0 (ng/mL)

- Compound: "O=C(CCc1ccc(C(F)(F)F)cc1)O[C@@H]1C(=O)NCCc2c([nH]c3ccccc23)[C@H]1c1ccc(C(F)(F)F)cc1 [(+)3C-20]"
  Assay Result: 6800

* * *

- Procedure Summary: Pharmacokinetics and tissue distribution after single intravenous administration
- Assay type: in vivo, mouse
- Measurement Parameters: ICR, mouse, iv; mice, single i.v. 10 mg/kg; Plasma; read-out: t1/2 (converted)

- Compound: "O=C(CCc1ccc(C(F)(F)F)cc1)O[C@@H]1C(=O)NCCc2c([nH]c3ccccc23)[C@H]1c1ccc(C(F)(F)F)cc1 [(+)3C-20]"
  half-life: "4.88 h"

* * *

- Procedure Summary: Pharmacokinetics and tissue distribution after single intravenous administration
- Format: in vivo, mouse
- Measurement Parameters: ICR, mouse, spleen, iv; mice, single i.v. 10 mg/kg; 6 h; read-out: Concentration of (+)3C-20, Spleen

- Compound: "O=C(CCc1ccc(C(F)(F)F)cc1)O[C@@H]1C(=O)NCCc2c([nH]c3ccccc23)[C@H]1c1ccc(C(F)(F)F)cc1 [(+)3C-20]"
  concentration at 6 h (ng/g): 98.7

* * *

- Procedure Summary: Pharmacokinetics and tissue distribution after single intravenous administration
- Type: in vivo, mouse
- Measurement Parameters: ICR, mouse, iv; mice, single i.v. 10 mg/kg; Lung

- Molecule: "O=C(CCc1ccc(C(F)(F)F)cc1)O[C@@H]1C(=O)NCCc2c([nH]c3ccccc23)[C@H]1c1ccc(C(F)(F)F)cc1 [(+)3C-20]"
  k el: "5.39e-05 s⁻¹"

* * *

- Procedure Summary: Pharmacokinetics and tissue distribution after single intravenous administration
- Type: in vivo, mouse
- Measurement Parameters: ICR, mouse, iv; mice, single i.v. 10 mg/kg; Lung; read-out: Tissues/plasma ratio
Measurement Kind: Kp

- Compound: "O=C(CCc1ccc(C(F)(F)F)cc1)O[C@@H]1C(=O)NCCc2c([nH]c3ccccc23)[C@H]1c1ccc(C(F)(F)F)cc1 [(+)3C-20]"
  Measurement Kind: "Kp"
  Assay Result: 5.17

* * *

- Procedure Summary: Pharmacokinetics and tissue distribution after single intravenous administration
- Format: in vivo, mouse
- Measurement Parameters: ICR, mouse, iv; mice, single i.v. 10 mg/kg; Liver

- Compound: "O=C(CCc1ccc(C(F)(F)F)cc1)O[C@@H]1C(=O)NCCc2c([nH]c3ccccc23)[C@H]1c1ccc(C(F)(F)F)cc1 [(+)3C-20]"
  AUC(0-inf) / ng·h/mL: 15500

* * *

- Procedure Summary: Pharmacokinetics and tissue distribution after single intravenous administration
- Format: in vivo, mouse
- Measurement Parameters: ICR, mouse, iv; mice, single i.v. 10 mg/kg; Blood; read-out: t1/2 (converted)

- Compound: "O=C(CCc1ccc(C(F)(F)F)cc1)O[C@@H]1C(=O)NCCc2c([nH]c3ccccc23)[C@H]1c1ccc(C(F)(F)F)cc1 [(+)3C-20]"
  Units Of Measure: "h"
  half-life: 5.72

* * *

- Procedure Summary: Pharmacokinetics and tissue distribution after single intravenous administration
- Format: in vivo, mouse
- Measurement Parameters: ICR, mouse, iv; mice, single i.v. 10 mg/kg; Kidney
Measurement Kind: k el (s⁻¹)

- Compound: "O=C(CCc1ccc(C(F)(F)F)cc1)O[C@@H]1C(=O)NCCc2c([nH]c3ccccc23)[C@H]1c1ccc(C(F)(F)F)cc1 [(+)3C-20]"
  Assay Result: 0.000134

* * *

- Procedure Summary: Pharmacokinetics and tissue distribution after single intravenous administration
- Type: in vivo, mouse
- Measurement Parameters: ICR, mouse, iv; mice, single i.v. 10 mg/kg; Liver

- Molecule: "O=C(CCc1ccc(C(F)(F)F)cc1)O[C@@H]1C(=O)NCCc2c([nH]c3ccccc23)[C@H]1c1ccc(C(F)(F)F)cc1 [(+)3C-20]"
  Cmax, ng/mL: 5010

* * *

- Procedure Summary: Pharmacokinetics and tissue distribution after single intravenous administration
- Format: in vivo, mouse
- Measurement Parameters: ICR, mouse, iv; mice, single i.v. 10 mg/kg; Spleen

- Compound: "O=C(CCc1ccc(C(F)(F)F)cc1)O[C@@H]1C(=O)NCCc2c([nH]c3ccccc23)[C@H]1c1ccc(C(F)(F)F)cc1 [(+)3C-20]"
  AUC(0-inf): "9840 ng·h/mL"
